MEASUREMENT_TARGET: tyrosine kinase of 72 kDa (Rattus norvegicus)
Construct: endogenous in cells; host or cells: RBL-2H3 cells
Sequence (Q64725 whole entry): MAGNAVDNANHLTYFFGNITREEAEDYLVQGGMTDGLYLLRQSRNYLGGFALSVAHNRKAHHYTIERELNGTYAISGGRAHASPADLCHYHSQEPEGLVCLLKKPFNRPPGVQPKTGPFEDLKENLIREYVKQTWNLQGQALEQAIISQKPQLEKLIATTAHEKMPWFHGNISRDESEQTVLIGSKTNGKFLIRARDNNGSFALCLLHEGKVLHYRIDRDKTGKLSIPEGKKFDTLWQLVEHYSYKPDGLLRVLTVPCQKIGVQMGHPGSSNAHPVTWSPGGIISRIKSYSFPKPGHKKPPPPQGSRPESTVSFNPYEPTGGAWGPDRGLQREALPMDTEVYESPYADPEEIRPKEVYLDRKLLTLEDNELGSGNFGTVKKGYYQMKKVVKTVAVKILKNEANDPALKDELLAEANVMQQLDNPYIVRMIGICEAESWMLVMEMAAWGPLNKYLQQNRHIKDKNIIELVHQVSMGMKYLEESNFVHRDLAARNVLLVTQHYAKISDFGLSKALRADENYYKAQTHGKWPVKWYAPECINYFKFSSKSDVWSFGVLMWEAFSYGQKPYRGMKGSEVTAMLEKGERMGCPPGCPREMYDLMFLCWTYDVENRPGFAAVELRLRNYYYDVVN
ASSAY_NAME: Inhibition of activation (phosphorylation) of tyrosine kinase of 72 kDa due to antigenic stimulation in RBL-2H3 cells
Format: cell-based
TEST_PARAMETERS: Conc. of Compd. 3 μM
Reported values of Inhibitory Strength (%) for individual entries
# value in %; strip the unit string

1. Cc1ccc2c(c1C)N(CCCN(CCO)Cc1ccccc1)c1ccccc1[S+]2[O-] (stereo not shown) :: 100
2. Cc1ccc2c(c1C)N(CCCNCc1ccccc1)c1ccccc1[S+]2[O-] (stereo not shown) :: 100
3. Cc1ccc2c(c1C)N(CCCN(CC(=O)O)CC(=O)O)c1ccccc1[S+]2[O-] (stereo not shown) :: 100

Now, please, on to the next molecule.
Q) Which Inhibitory Strength (%) value is on record for Cc1ccc2c(=NOC(C)C(=O)O)c3ccccc3n(CCCNCc3ccccc3)c2c1C (stereo not shown) ?
A) 70
